Assay Procedure: Toxicokinetics, 14-day intranasal study in dogs (Study 62959)
Assay type: in vivo
Condition Set: male, beagle, dog, plasma, inhaled or intranasal, 0.4 mg/kg/day, Day 1, Male
Endpoint: Cmax

                                   molecule  endpoint_result
0  COc1ccc2[nH]cc(CCN(C)C)c2c1 [BPL-5MEO, 5-methoxy-N,N-dimethyltryptamine]        343 ng/mL

====

Assay Procedure: Toxicokinetics, 14-day intranasal study in rats (Study 700041)
Format: in vivo
Condition Set: female, Sprague Dawley, rat, plasma, inhaled or intranasal, 75 mg/kg/day, Day 14, Female, read-out: AUC0-Tlast [SE]
Description: The animals were monitored for mortality, clinical signs, respiratory measurements, body weights, food consumption, and body temperature. Ophthalmoscopic examinations and respiratory function tests were performed on all animals at scheduled timepoints. Clinical pathology assessments (hematology, coagulation, clinical chemistry, and urinalysis) were evaluated at termination. […] Following dosing, the Main animals were euthanized and subjected to a complete necropsy examination on Day 15. […]
Endpoint: AUC(0-t) (ng·h/mL)

In [3]: df
Out[3]:
                   test_smiles  endpoint  endpoint_result
0  COc1ccc2[nH]cc(CCN(C)C)c2c1  AUC(0-t)              155
